Test: Acute toxicity
Settings: rat, in vivo; male Wistar rats, oral by gastric tube, suspended in 5 % gum arabic, observed 7 days, method of Van der Warden; read-out: oral LD50 value
value-kind: LD50 at 168 h (mg/kg)
# number only, unit mg/kg dropped from output

Entry under review: CCCCCCCN1C(C)=CS\C1=C/C=C(/C=C/c1scc(C)[n+]1CCCCCCC)c1scc(C)[n+]1CCCCCCC . Reported LD50 at 168 h?
1500
